System: doxorubicin-resistant Jurkat human leukaemia cell line (JLD)
Experiment: Cytotoxicity in doxorubicin-resistant Jurkat cells (JLD)
Type: cell-based
Conditions: IC50 in JLD divided by IC50 in JLC
Measurement kind: Rf(JLD/JLC)

molecule="COc1nccc2c1ccc1nc3cccc(C(=O)NCCN(C)C)c3nc12 [Compound 5]" result=0.7
molecule="COc1nccc2c1ccc1nc3cccc(C(=O)N[C@H](C)CN(C)C)c3nc12 [Compound 6]" result=0.9
molecule="CN(C)CCNC(=O)c1cccc2nc3ccc4cnn(C)c4c3nc12 [Compound 13]" result=1.1
molecule="CN(C)CCNC(=O)c1cccc2nc3ccc4cnccc4c3nc12 [Compound 2]" result=2.8
molecule="CN(C)CCNc1nc2cc(O)ccc2c2c1C(=O)c1ccccc1-2 [TAS-103, reference compound]" result=71.1
molecule="CN(C)CCNC(=O)c1cccc2nc3ccc4ncccc4c3nc12 [Compound 3]" result=0.7

====

System: H69/LX4 human small cell lung carcinoma cell line which overexpresses P-glycoprotein (Pgp)
Test: Cytotoxicity in drug resistant H69/LX4 cells (AlamarBlue)
Details: read-out: H69/LX4 IC50; H69/LX4 cells (Pgp overexpressing), 5-6 days incubation
Measurement kind: IC50 (nM)

compound="CN(C)CCNc1nc2cc(O)ccc2c2c1C(=O)c1ccccc1-2 [TAS-103, reference compound]" assay_system="H69/LX4 human small cell lung carcinoma cell line which overexpresses P-glycoprotein (Pgp)" result=22

====

Each entry below lists one item and its recorded pIC50 value.
System: H69/LX4 human small cell lung carcinoma cell line which overexpresses P-glycoprotein (Pgp)
Assay: Cytotoxicity in drug resistant H69/LX4 cells (AlamarBlue)
Method: The cytotoxicity of compounds of formula (I) was measured using the H69 parental (H69/P) human small cell lung carcinoma cell line and the drug resistant human small cell lung carcinoma cell line H69/LX4 which overexpresses P-glycoprotein (Pgp). H69/P and H69/LX4 cells were pipetted into 96-well tissue culture plates and then allowed to incubate at 37° C. for 4 h. […]
pIC50: −log10 of the molar value.
Measurement kind: pIC50

query_smiles=COc1nccc2c1ccc1nc3cccc(C(=O)N[C@H](CO)CN(C)C)c3nc12 assay_system="H69/LX4 human small cell lung carcinoma cell line which overexpresses P-glycoprotein (Pgp)" measurement_kind=pIC50 result=7.55
query_smiles=CN(C)CCNC(=O)c1cccc2nc3ccc4cnccc4c3nc12 assay_system="H69/LX4 human small cell lung carcinoma cell line which overexpresses P-glycoprotein (Pgp)" measurement_kind=pIC50 result=7.25
query_smiles=COc1nccc2c1ccc1nc3cccc(C(=O)NCCN(C)C)c3nc12 assay_system="H69/LX4 human small cell lung carcinoma cell line which overexpresses P-glycoprotein (Pgp)" measurement_kind=pIC50 result=7.59
query_smiles=CN(C)CCNC(=O)c1cccc2nc3ccc4cnn(C)c4c3nc12 assay_system="H69/LX4 human small cell lung carcinoma cell line which overexpresses P-glycoprotein (Pgp)" measurement_kind=pIC50 result=7.01
query_smiles=CN(C)CCNC(=O)c1cccc2nc3ccc4ncccc4c3nc12 assay_system="H69/LX4 human small cell lung carcinoma cell line which overexpresses P-glycoprotein (Pgp)" measurement_kind=pIC50 result=6.88
query_smiles=COc1nccc2c1ccc1nc3cccc(C(=O)N[C@H](C)CN(C)C)c3nc12 assay_system="H69/LX4 human small cell lung carcinoma cell line which overexpresses P-glycoprotein (Pgp)" measurement_kind=pIC50 result=7.54

====

Experiment: Cytotoxicity in drug resistant COR-L23/R cells (SRB assay)
Type: cell-based, human
Settings: Homo sapiens, COR-L23/R; L23/R cells (MRP overexpressing), 5-6 days incubation, SRB
Measurement kind: IC50 (nM)

compound="CC[C@@]1(O)C(=O)OCc2c1cc1n(c2=O)Cc2cc3c(CN(C)C)c(O)ccc3nc2-1 [Topotecan, reference compound]" unit_symbol=nM result=20.8
compound="COc1cccc2c1C(=O)c1c(O)c3c(c(O)c1C2=O)C[C@@](O)(C(=O)CO)C[C@@H]3O[C@H]1C[C@H](N)[C@H](O)[C@H](C)O1 [Doxorubicin, reference compound]" unit_symbol=nM result=327
